system: skin roughness caused by oleic acid on the back of hairless mice; test: Inhibitory effect on skin roughness by the application of oleic acid (TEWL value); type: in vivo, hairless mice (HR-1); set-up: unit not given here; conditions: sample 3 weight %; after 10 weight % oleic acid, 3 days, four mice per group; larger = severer roughness; control 12.0
ΔTEWL vs 9: at or above is y, below is n.

O=S(=O)(O)CC(O)CNC1CCCCC1 (centres unmarked)	n
CC(=O)NCC(=O)O [N-acetylglycine, reference compound]	y
O=C(O)CN(CCO)CCO [bicine, reference compound]	y

Q) Determine whether measured ΔTEWL meets or exceeds 9 for O=S(=O)(O)CCCNC(CO)(CO)CO [TAPS, reference compound]
A) y

Q) Determine whether measured ΔTEWL meets or exceeds 9 for O=S(=O)(O)CCNC1CCCCC1 [CHES, reference compound]
A) y

Q) Determine whether measured ΔTEWL meets or exceeds 9 for CN(C)CC(=O)O [N,N-dimethylglycine, reference compound]
A) y

Q) Determine whether measured ΔTEWL meets or exceeds 9 for O=S(=O)(O)CCCNC1CCCCC1
A) n

Q) Determine whether measured ΔTEWL meets or exceeds 9 for O=S(=O)(O)CCCCNC1CCCCC1 [CABS, reference compound]
A) y

Q) Determine whether measured ΔTEWL meets or exceeds 9 for NC(=O)NCC(=O)O
A) n

Q) Determine whether measured ΔTEWL meets or exceeds 9 for Cl.NCC(N)=O [glycine-amide HCL, glycine-amide hydrochloride, reference compound]
A) y

Q) Determine whether measured ΔTEWL meets or exceeds 9 for CCOC(=O)CN1CCCCC1 [ethyl-1-piperidine acetate, reference compound]
A) y

Q) Determine whether measured ΔTEWL meets or exceeds 9 for CCOC(=O)CNC(=O)CN.Cl [glycylglycine ethyl ester HCL]
A) n

Q) Determine whether measured ΔTEWL meets or exceeds 9 for CC(C(=O)O)N1CCOCC1 (centres unmarked) [methylmorpholino acetate, methylmorpholino acetic acid, reference compound]
A) y

Q) Determine whether measured ΔTEWL meets or exceeds 9 for O=C(O)CNc1ccccc1
A) n

Q) Determine whether measured ΔTEWL meets or exceeds 9 for C[N+](C)(C)CC(=O)O [betaine, reference compound]
A) y

Q) Determine whether measured ΔTEWL meets or exceeds 9 for O=S(=O)(O)CCCN1CCOCC1 [MOPS, 3-(N-morpholino)propane sulfonic acid, reference compound]
A) y
